- Tested on: OVCAR-3
- measurementProtocol: NCI tumour cell line growth inhibition, 48 h
Active and inactive are the calls of the source. No stated cut-off is given here; in the data, active = GI50 up to about 1.1 µM and inactive = higher.
Below, each entry is listed with its recorded GI50.

Before answering, review these 5 worked examples.
The recorded GI50 for entry O=C(/C=C/c1ccc2ccccc2c1)NCc1ccc(C(=O)NCc2ccccc2)cc1 equals > 80.5 µM (inactive)

The recorded GI50 for entry COc1ccc(NC(=O)C(C)Oc2ccc(OCC3CCCCC3)cc2)cc1 (stereo unspecified) equals 62.5 µM (inactive)

The recorded GI50 for entry NC(CCc1nc(-c2ccc(Cl)cc2)cs1)C(=O)O (stereo unspecified) equals > 100 µM (inactive)

The recorded GI50 for entry O=C1/C(=C/c2ccccc2S)N=C(c2ccccc2)N1c1nc2ccc(Sc3ccccc3)cc2[nH]1 equals 21.6 µM (inactive)

The recorded GI50 for entry COc1ccccc1[S+]([O-])Nc1ccccc1 (stereo unspecified) equals > 100 µM (inactive)

API: the following record is the query input.
The recorded GI50 for entry NC1=Nc2ccccc2Sc2nccn21 equals 18.6 µM (inactive)
